Target: T1, biotin-labeled human CD137 fused to human IgG1 Fc fragment (human, biotin-labeled)
T1 construct: also called human CD137-Fc; biotin-human CD137-Fc
T1 sequence (chain, as listed by the source limits assumed): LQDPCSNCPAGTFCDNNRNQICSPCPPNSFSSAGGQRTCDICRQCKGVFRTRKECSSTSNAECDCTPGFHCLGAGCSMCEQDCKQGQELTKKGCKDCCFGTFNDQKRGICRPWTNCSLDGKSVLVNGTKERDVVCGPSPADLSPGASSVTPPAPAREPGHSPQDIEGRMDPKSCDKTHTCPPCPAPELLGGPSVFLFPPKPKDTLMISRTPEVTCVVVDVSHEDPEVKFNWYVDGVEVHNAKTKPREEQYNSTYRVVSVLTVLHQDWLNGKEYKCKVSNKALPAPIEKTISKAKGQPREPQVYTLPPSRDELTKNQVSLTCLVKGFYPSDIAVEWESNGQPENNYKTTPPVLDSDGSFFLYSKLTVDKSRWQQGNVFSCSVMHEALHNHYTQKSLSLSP
Test: bead ELISA, IgG on biotin-human CD137-Fc; signal with free CD3e 62.5 pmol against free Fc 62.5 pmol

{"binder": "dBBDu_H115/L035 (antibody, human IgG1, V domains shown, Full length IgG (human IgG1 CH1-Fc heavy chain, kappa light chain)) VH: QVQLVESGGGLVQPGRSLRLSCAASGFTFSNAWMHWVRQAPGKGLEWVAQIKDKANSYNTYYAPSVKGRFTISRDDSKNSIYLQMNSLKTEDTAVYYCRYVHYGSSYGFLFAGYGVDAWGQGTTVTVSS VL: DIVMTQSPLSLPVTPGEPASISCAASESLLHTNRNTYLHWYQQKPGQAPRLLIYKVSNRFSGVPDRFSGSGSGTDFTLKISRVEAEDVGVYYCAQGTQSPFTFGQGTKLEIK", "unit-tag": "%", "Signal decrease": 97.9}

Origin of measurements: patent US20240270846A1
